Tested on: PANC-1
test-summary: Phototoxicity (PDT), MTT assay, PANC-1
Format: cell-based
experimental-parameters: 25 μM photosensitizer, 3 h, 50 mW 0.09 J/cm^2 laser 100 sec, 72 h incubation
Method: Phototoxicity: The culture of AsPC-1 pancreatic cancer cells were grown in RPMI-1640 medium (life technologies corporation, USA) supplemented with 10% heat-inactivated fetal bovine serum (life technologies corporation, USA) and 1% penicillin (life technologies corporation, USA), whereas MIA-paca2 and PANC-1 cells were grown in DMEM. […] The cell viability was calculated using the following formula: Cell viability (%)=Mean optical density of treated wells/Mean optical density of control wells×100.
Some molecules, each annotated with its measured Cell viability, Phototoxicity against PANC-1.
quantity-kind: Cell viability, Phototoxicity against PANC-1 (%)

[
  {
    "molecule": "C=Cc1c(C)c2cc3nc(c(CC(=O)O)c4[nH]c(cc5nc(cc1[nH]2)C(C)=C5CC)c(C)c4C(=O)O)[C@@H](CCC(=O)O)[C@@H]3C [Compound 3, Chlorin e6]",
    "experimental-value": 8.57
  },
  {
    "molecule": "C=Cc1c(C)c2cc3nc(c(CC(=O)OC)c4[nH]c(cc5nc(cc1[nH]2)C(C)=C5CC)c(C)c4C(=O)NCCCCCCNC(=O)CCCC(=O)Oc1ccc(/C=C/C(=O)CC(=O)/C=C/c2ccc(O)c(OC)c2)cc1OC)C(CCC(=O)OC)C3C (centres unmarked) [Compound 10, Chlorine e6-curcumin Conjugate (10)]",
    "experimental-value": 81.07
  },
  {
    "molecule": "C=Cc1c(C)c2cc3nc(c(CC(=O)OC)c4[nH]c(cc5nc(cc1[nH]2)C(C)=C5CC)c(C)c4C(=O)NCCOCCOCCNC(=O)CCCC(=O)Oc1ccc(/C=C/C(=O)CC(=O)/C=C/c2ccc(O)c(OC)c2)cc1OC)C(CCC(=O)OC)C3C (centres unmarked) [Compound 13, Chlorine e6-curcumin Conjugate (13)]",
    "experimental-value": 8.04
  },
  {
    "molecule": "C=Cc1c(C)c2cc3nc(c(CC(=O)OC)c4[nH]c(cc5nc(cc1[nH]2)C(C)=C5CC)c(C)c4C(=O)NCCCNC(=O)CCCC(=O)Oc1ccc(/C=C/C(=O)CC(=O)/C=C/c2ccc(O)c(OC)c2)cc1OC)C(CCC(=O)OC)C3C (centres unmarked) [Compound 7, Chlorine e6-curcumin Conjugate (7)]",
    "experimental-value": 11.58
  },
  {
    "molecule": "C=Cc1c(C)c2cc3nc(c(CC(=O)OC)c4[nH]c(cc5nc(cc1[nH]2)C(C)=C5CC)c(C)c4C(=O)NCCCOCCOCCOCCCNC(=O)CCCC(=O)Oc1ccc(/C=C/C(=O)CC(=O)/C=C/c2ccc(O)c(OC)c2)cc1OC)[C@@H](CCC(=O)OC)[C@@H]3C [Compound 16, Chlorine e6-curcumin Conjugate (16)]",
    "experimental-value": 24.07
  }
]

====

Tested on: MIA-PaCa-2
test-summary: Phototoxicity (PDT), MTT assay, MIA-PaCa-2
Type: cell-based
experimental-parameters: 12.5 μM photosensitizer, 3 h, 50 mW 0.09 J/cm^2 laser 100 sec, 72 h incubation
quantity-kind: Cell viability, Phototoxicity against MIA-PaCa-2 (%)

[
  {
    "compound": "C=Cc1c(C)c2cc3nc(c(CC(=O)OC)c4[nH]c(cc5nc(cc1[nH]2)C(C)=C5CC)c(C)c4C(=O)NCCOCCOCCNC(=O)CCCC(=O)Oc1ccc(/C=C/C(=O)CC(=O)/C=C/c2ccc(O)c(OC)c2)cc1OC)C(CCC(=O)OC)C3C (stereo not shown) [Compound 13, Chlorine e6-curcumin Conjugate (13)]",
    "experimental-value": 4.93
  },
  {
    "compound": "C=Cc1c(C)c2cc3nc(c(CC(=O)OC)c4[nH]c(cc5nc(cc1[nH]2)C(C)=C5CC)c(C)c4C(=O)NCCCNC(=O)CCCC(=O)Oc1ccc(/C=C/C(=O)CC(=O)/C=C/c2ccc(O)c(OC)c2)cc1OC)C(CCC(=O)OC)C3C (stereo not shown) [Compound 7, Chlorine e6-curcumin Conjugate (7)]",
    "experimental-value": 6.03
  },
  {
    "compound": "C=Cc1c(C)c2cc3nc(c(CC(=O)OC)c4[nH]c(cc5nc(cc1[nH]2)C(C)=C5CC)c(C)c4C(=O)NCCCOCCOCCOCCCNC(=O)CCCC(=O)Oc1ccc(/C=C/C(=O)CC(=O)/C=C/c2ccc(O)c(OC)c2)cc1OC)[C@@H](CCC(=O)OC)[C@@H]3C [Compound 16, Chlorine e6-curcumin Conjugate (16)]",
    "experimental-value": 9.49
  },
  {
    "compound": "C=Cc1c(C)c2cc3nc(c(CC(=O)OC)c4[nH]c(cc5nc(cc1[nH]2)C(C)=C5CC)c(C)c4C(=O)NCCCCCCNC(=O)CCCC(=O)Oc1ccc(/C=C/C(=O)CC(=O)/C=C/c2ccc(O)c(OC)c2)cc1OC)C(CCC(=O)OC)C3C (stereo not shown) [Compound 10, Chlorine e6-curcumin Conjugate (10)]",
    "experimental-value": 85.20
  }
]

====

viability at 3.12 μM values, listed per item
test-summary: Dark cytotoxicity, MTT assay, AsPC-1
Format: cell-based
experimental-parameters: human, AsPC-1 pancreatic cancer cells; 3.12 μM photosensitizer, 3 h, no light, 72 h incubation; read-out: Cell viability, Dark Cytotoxicity against AsPC-1
Procedure: Dark cytotoxicity: The culture of AsPC-1 pancreatic cancer cells were grown in RPMI-1640 medium (life technologies corporation, USA) supplemented with 10% heat-inactivated fetal bovine serum (life technologies corporation, USA) and 1 penicillin (life technologies corporation, USA), whereas MIA-paca2 and PANC-1 cells were grown in DMEM. […] The cell viability was calculated using the following formula: Cell viability (%)=Mean optical density of treated wells/Mean optical density of control wells×100.
quantity-kind: viability at 3.12 μM (%)

[
  {
    "compound": "C=Cc1c(C)c2cc3nc(c(CC(=O)OC)c4[nH]c(cc5nc(cc1[nH]2)C(C)=C5CC)c(C)c4C(=O)NCCOCCOCCNC(=O)CCCC(=O)Oc1ccc(/C=C/C(=O)CC(=O)/C=C/c2ccc(O)c(OC)c2)cc1OC)C(CCC(=O)OC)C3C (stereo not shown) [Compound 13, Chlorine e6-curcumin Conjugate (13)]",
    "quantity-kind": "viability at 3.12 μM",
    "experimental-value": 105
  },
  {
    "compound": "C=Cc1c(C)c2cc3nc(c(CC(=O)OC)c4[nH]c(cc5nc(cc1[nH]2)C(C)=C5CC)c(C)c4C(=O)NCCCCCCNC(=O)CCCC(=O)Oc1ccc(/C=C/C(=O)CC(=O)/C=C/c2ccc(O)c(OC)c2)cc1OC)C(CCC(=O)OC)C3C (stereo not shown) [Compound 10, Chlorine e6-curcumin Conjugate (10)]",
    "quantity-kind": "viability at 3.12 μM",
    "experimental-value": 96.5
  },
  {
    "compound": "C=Cc1c(C)c2cc3nc(c(CC(=O)OC)c4[nH]c(cc5nc(cc1[nH]2)C(C)=C5CC)c(C)c4C(=O)NCCCOCCOCCOCCCNC(=O)CCCC(=O)Oc1ccc(/C=C/C(=O)CC(=O)/C=C/c2ccc(O)c(OC)c2)cc1OC)[C@@H](CCC(=O)OC)[C@@H]3C [Compound 16, Chlorine e6-curcumin Conjugate (16)]",
    "quantity-kind": "viability at 3.12 μM",
    "experimental-value": 99.9
  },
  {
    "compound": "C=Cc1c(C)c2cc3nc(c(CC(=O)O)c4[nH]c(cc5nc(cc1[nH]2)C(C)=C5CC)c(C)c4C(=O)O)[C@@H](CCC(=O)O)[C@@H]3C",
    "quantity-kind": "viability at 3.12 μM",
    "experimental-value": 98.8
  }
]

====

Test system: PANC-1
test-summary: Phototoxicity (PDT), MTT assay, PANC-1
Assay type: cell-based
experimental-parameters: 50 μM photosensitizer, 3 h, 50 mW 0.09 J/cm^2 laser 100 sec, 72 h incubation
Method: Phototoxicity: The culture of AsPC-1 pancreatic cancer cells were grown in RPMI-1640 medium (life technologies corporation, USA) supplemented with 10% heat-inactivated fetal bovine serum (life technologies corporation, USA) and 1% penicillin (life technologies corporation, USA), whereas MIA-paca2 and PANC-1 cells were grown in DMEM. […] The cell viability was calculated using the following formula: Cell viability (%)=Mean optical density of treated wells/Mean optical density of control wells×100.
Cell viability, Phototoxicity against PANC-1 values for the compounds below.
quantity-kind: Cell viability, Phototoxicity against PANC-1 (%)

[
  {
    "compound": "C=Cc1c(C)c2cc3nc(c(CC(=O)OC)c4[nH]c(cc5nc(cc1[nH]2)C(C)=C5CC)c(C)c4C(=O)NCCCCCCNC(=O)CCCC(=O)Oc1ccc(/C=C/C(=O)CC(=O)/C=C/c2ccc(O)c(OC)c2)cc1OC)C(CCC(=O)OC)C3C (centres unmarked) [Compound 10, Chlorine e6-curcumin Conjugate (10)]",
    "tested-target": "PANC-1",
    "experimental-value": 73.00
  },
  {
    "compound": "C=Cc1c(C)c2cc3nc(c(CC(=O)OC)c4[nH]c(cc5nc(cc1[nH]2)C(C)=C5CC)c(C)c4C(=O)NCCCNC(=O)CCCC(=O)Oc1ccc(/C=C/C(=O)CC(=O)/C=C/c2ccc(O)c(OC)c2)cc1OC)C(CCC(=O)OC)C3C (centres unmarked) [Compound 7, Chlorine e6-curcumin Conjugate (7)]",
    "tested-target": "PANC-1",
    "experimental-value": 11.87
  }
]
